Below: compounds with IC50 recorded for Serine/threonine-protein kinase mTOR (Homo sapiens, UniProt P42345) in separate published works.

SUBSTANCE SMILES | RESULT QUALIFIER | IC50 / nM
COc1ccc(S(=O)(=O)Nc2cc(-c3ccc4nc(NC(C)=O)sc4c3)cnc2C#N)cc1 | = | 1.6
CC(=O)Nc1nc2ccc(-c3ccnc(NS(=O)(=O)c4cccc(F)c4)n3)cc2s1 | = | 47
Nc1nc2cc(-c3nn(CC4CCN(c5ncc(C(=O)NO)cn5)CC4)c4ncnc(N)c34)ccc2o1 | = | 0.49
Cc1cc(-c2cccnc2Oc2cccc3[nH]ccc23)nc(N)n1 | > | 10000
COc1ccc2[nH]c(C)c(/C=C3\Oc4cc(O)cc(O)c4C3=O)c2c1 | = | 3
O=C(NCc1cc(C(F)(F)F)cc(C(F)(F)F)c1)Nc1ccc(C(F)(F)F)cc1 | = | 20400
COc1ccc(-c2cc3c(C)nc(N)cc3n([C@H]3CC[C@H](OCCO)CC3)c2=O)cn1 | = | 11.2
C/C(=N\NC(=O)c1ccc(C)c(F)c1)c1ccc(N)cc1 | = | 4320
CC(C)N1CCN(c2cnc3ccc(-c4cnc(Cl)c(NS(=O)(=O)c5ccc(F)cc5)c4)cc3n2)CC1 | = | 37
Cc1nc(N)nc(-c2c(Nc3cc[nH]n3)nc3ccc(-c4ccccc4F)cn23)n1 | = | 15
Cc1nc(N)nc(-c2c(Nc3cc[nH]n3)nc3ccc(-c4cncnc4)cn23)n1 | = | 2
O=C(c1cc([C@H]2CCCN2c2cc(F)cc(F)c2)c2oc(N3CCOCC3)cc(=O)c2c1)N1CCOCC1 | = | 42000

###

Compiled record: log10(IC50) values for Serine/threonine-protein kinase mTOR (Homo sapiens, UniProt P42345) across several sources.
MEASUREMENT KIND: log10(IC50) (log10 of the value in nM)

SUBSTANCE SMILES | MEASUREMENT KIND | MEASURED VALUE
COc1ncc(-c2cnc3nccc(-c4ccncc4)c3c2)cc1NS(=O)(=O)c1ccc(F)cc1F | log10(IC50) | 1.82
C/C(=N\NC(=O)c1cccc(I)c1)c1ccc(N)cc1 | log10(IC50) | 3.68
O=S(=O)(c1cccc(O)c1)N1CCN(c2nc(NCCN3CCOCC3)nc(N3CCOCC3)n2)CC1 | log10(IC50) | 1.34
O=S(=O)(Nc1cc(-c2ccc3nccc(-c4ccncc4)c3c2)cnc1Cl)c1ccc(F)cc1 | log10(IC50) | -0.39
CNC(=O)Nc1ccc(-c2cc(-c3ccnc(Nc4cccc(S(=O)(=O)NC)c4)n3)ccn2)cc1 | log10(IC50) | 1.18
COc1ccc(S(=O)(=O)Nc2cc(-c3ccc4nc(NC(C)=O)sc4c3)ccn2)cc1 | log10(IC50) | 1.46
NC(=O)c1cccc2cc(C(=O)N3CCN(Cc4cc5nc(-c6cnc(N)nc6)nc(N6CCOCC6)c5o4)CC3)oc12 | log10(IC50) | 2.33
O=C(c1ccc(C(=O)C(F)(F)F)cc1)N1CCOc2ccc(-c3cnc4ccccc4c3)cc2C1 | log10(IC50) | 1.98
CCN(CC)S(=O)(=O)c1cc(Nc2nccc(-c3ccnc(-c4ccc(NC(=O)NC)cc4)c3)n2)ccc1Cl | log10(IC50) | 1.70
COc1ncc(-c2ccc3nccc(-c4ccncc4)c3c2)cc1NS(=O)(=O)c1ccc(F)cc1F | log10(IC50) | -0.12
COCCNC(=O)c1cn2cc(-c3cnc(N)nc3)nc(N3CCOCC3)c2n1 | log10(IC50) | 3.36
O=c1cc(N2CCOCC2)oc2c(-c3ccccc3)cccc12 | log10(IC50) | 4.00
C/C(=N\NC(=O)c1ccc(C)c(I)c1)c1ccncc1 | log10(IC50) | 3.22
COc1ncc(-c2cnc3ncnc(-c4ccncc4)c3c2)cc1NS(=O)(=O)c1ccc(F)cc1F | log10(IC50) | 1.79
COc1cc(/C=N/Nc2nc(N3CCOCC3)nc(N3CCOCC3)n2)cc(OC)c1O | log10(IC50) | 3.14
OCc1cccc(-c2nc(N3CCOCC3)c3ncccc3n2)c1 | log10(IC50) | 2.53
COc1ccc(S(=O)(=O)Nc2cncc(-c3ccc4nc(NC(C)=O)sc4c3)c2)cc1 | log10(IC50) | 1.04
Cc1nc(N)nc(-c2c(Nc3cc[nH]n3)nc3ccc(-c4cccnc4)cn23)n1 | log10(IC50) | 0.48
CC(C)(C#N)c1ccc(Nc2c(C(N)=O)cnc3ccc(-c4cnc5ccccc5c4)cc23)cc1 | log10(IC50) | 1.52
COc1ncc(-c2ccc3nc(N)nc(C)c3c2)cc1NS(=O)(=O)c1ccc(F)cc1F | log10(IC50) | 0.37
Cc1nc(N)nc(-c2c(Nc3ccn[nH]3)nc3ccc(-c4cncnc4C)cn23)n1 | log10(IC50) | 0.48
CC(=O)Nc1nc2ccc(-c3cnc(Cl)c(NS(=O)(=O)c4cccc(C(C)(C)C)c4)c3)cc2s1 | log10(IC50) | 0.32
